target: Serine/threonine-protein kinase Sgk3 (Homo sapiens) (UniProt Q96BR1); conditions: at 1 µM;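 note: each value is a mean of replicate inhibition readings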
Sequence (Q96BR1 whole entry): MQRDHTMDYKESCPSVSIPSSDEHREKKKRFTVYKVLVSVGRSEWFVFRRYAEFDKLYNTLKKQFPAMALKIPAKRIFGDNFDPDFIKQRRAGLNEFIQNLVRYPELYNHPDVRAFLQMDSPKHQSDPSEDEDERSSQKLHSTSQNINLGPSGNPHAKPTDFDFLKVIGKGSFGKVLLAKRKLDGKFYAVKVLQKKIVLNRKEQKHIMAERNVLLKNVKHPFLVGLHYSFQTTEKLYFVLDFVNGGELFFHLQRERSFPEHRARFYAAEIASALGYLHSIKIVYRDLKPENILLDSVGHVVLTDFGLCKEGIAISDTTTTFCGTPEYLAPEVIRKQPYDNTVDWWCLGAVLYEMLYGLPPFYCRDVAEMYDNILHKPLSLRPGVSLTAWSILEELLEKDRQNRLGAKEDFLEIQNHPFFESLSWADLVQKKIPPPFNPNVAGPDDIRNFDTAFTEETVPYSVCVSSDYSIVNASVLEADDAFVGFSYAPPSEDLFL
Each record here notes measured inhibition.
Numeric only. Scale: %

> print(dat)
                                   compound  display.unit  measured.number
1  COc1ccc2cc(-c3c(-c4ccncc4)nc(-c4ccc([S+](C)[O-])cc4C)n3C)ccc2c1 (centres undefined)             %             0.65
2  C[C@@H](Oc1cc(-n2cnc3ccc(OCC4CCN(C)CC4)cc32)sc1C(N)=O)c1ccccc1Cl             %             3.66
3  NC(=O)Cc1ccccc1Oc1nccc(-c2c(-c3ccc(F)cc3)ncn2C2CCNCC2)n1             %             0.86
4  COc1cccc(/C=N/Nc2ncnc3c2cnn3-c2cccc(OC)c2)c1             %             2.43
5  CN1CCN(CCCNc2nc3ccc(Oc4ccc(NC(=O)Nc5cc(C(F)(F)F)ccc5F)cc4)cc3[nH]2)CC1             %             0.75

Query string: Return reported inhibition. Input compound: CN(C)c1ccc2c(c1)/C(=C/Nc1ccc(S(N)(=O)=O)cc1)C(=O)N2
Result string: -1.85

Query string: Return reported inhibition. Input compound: CCc1ccc(Oc2nccc(-c3c(-c4ccc(F)cc4)ncn3C3CCNCC3)n2)cc1
Result string: 1.87

Query string: Return reported inhibition. Input compound: CCS(=O)(=O)c1ccc(OC)c(Nc2ncc(-c3cccc(-c4ccccc4F)c3)o2)c1
Result string: -0.32

Query string: Return reported inhibition. Input compound: CS(=O)(=O)CCNCc1cc(-c2cc3c(Nc4ccc(OCc5cccc(F)c5)c(Cl)c4)ncnc3s2)cs1
Result string: 6.65

====

tested on: Tyrosine-protein kinase ABL1 (Homo sapiens), P00519 [E255K]; conditions: at 0.1 µM
Sequence (P00519 whole entry E255K): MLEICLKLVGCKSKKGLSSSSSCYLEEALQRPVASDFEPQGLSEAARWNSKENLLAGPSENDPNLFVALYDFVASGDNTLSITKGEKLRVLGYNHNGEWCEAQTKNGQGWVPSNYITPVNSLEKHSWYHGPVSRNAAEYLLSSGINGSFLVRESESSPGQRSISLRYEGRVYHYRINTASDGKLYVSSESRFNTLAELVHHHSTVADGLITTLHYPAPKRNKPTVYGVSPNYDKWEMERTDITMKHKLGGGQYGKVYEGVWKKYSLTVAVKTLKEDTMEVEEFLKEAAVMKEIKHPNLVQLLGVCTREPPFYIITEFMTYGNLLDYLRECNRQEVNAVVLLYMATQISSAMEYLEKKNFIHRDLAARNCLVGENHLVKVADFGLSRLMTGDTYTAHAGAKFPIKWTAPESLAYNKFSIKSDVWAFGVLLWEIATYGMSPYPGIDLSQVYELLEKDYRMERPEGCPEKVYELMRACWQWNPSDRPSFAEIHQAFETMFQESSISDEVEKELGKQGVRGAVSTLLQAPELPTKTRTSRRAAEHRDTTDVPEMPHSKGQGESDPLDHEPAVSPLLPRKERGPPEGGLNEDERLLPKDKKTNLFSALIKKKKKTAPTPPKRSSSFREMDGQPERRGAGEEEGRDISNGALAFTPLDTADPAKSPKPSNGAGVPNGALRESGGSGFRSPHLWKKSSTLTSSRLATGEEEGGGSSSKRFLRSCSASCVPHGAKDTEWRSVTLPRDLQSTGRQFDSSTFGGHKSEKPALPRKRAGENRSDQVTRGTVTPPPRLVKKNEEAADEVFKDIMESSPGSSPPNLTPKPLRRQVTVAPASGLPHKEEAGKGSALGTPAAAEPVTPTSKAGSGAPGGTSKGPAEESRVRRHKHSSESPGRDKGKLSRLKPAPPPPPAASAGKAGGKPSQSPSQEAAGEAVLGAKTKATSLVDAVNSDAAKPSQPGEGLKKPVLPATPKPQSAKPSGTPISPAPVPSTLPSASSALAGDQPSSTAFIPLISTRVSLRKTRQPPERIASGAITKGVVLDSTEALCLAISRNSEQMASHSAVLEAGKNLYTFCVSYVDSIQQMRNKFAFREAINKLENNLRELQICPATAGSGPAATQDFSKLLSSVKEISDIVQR
RECORDED_METRIC: inhibition (%)
Numeric only. Scale: %

> print(dat)
                                   molecule  recorded.metric  measured.number
1  Nc1nccc(-c2c(-c3ccc(F)cc3)ncn2C2CCC(O)CC2)n1 (stereo unspecified)       inhibition              2.5
2  Cc1nnc(-c2ccc(C)c(-c3ccc(C(=O)NCc4ccc(Cl)cc4)cc3)c2)o1       inhibition             2.64
3  COc1cc(Nc2ncc3c(C)nc(-c4cccc(Oc5ccccc5)c4)n3n2)cc(OC)c1OC       inhibition             2.03
4  CN(c1ccc(NC(=O)Nc2c(Cl)cccc2Cl)cc1)c1ccnc(Nc2cccc(CS(C)(=O)=O)c2)n1       inhibition             8.03
5  O=C(Nc1n[nH]c2nc(-c3ccc(O)cc3)c(Br)cc12)C1CC1       inhibition               21

Query string: Give measured inhibition for CCC(=O)Nc1ccc(C)c(-c2ccc(C(=O)NCC3CC3)cc2)c1 (Tyrosine-protein kinase ABL1 (Homo sapiens), P00519 [E255K]).
Result string: 2.13

Query string: Give measured inhibition for Fc1ccc(-c2ncn(C3CCNCC3)c2-c2ccnc(Oc3ccc(F)c(F)c3)n2)cc1 (Tyrosine-protein kinase ABL1 (Homo sapiens), P00519 [E255K]).
Result string: 1.96

Query string: Give measured inhibition for COc1cc(Nc2ncc3c(C)nc(-c4cccc(C(F)(F)F)c4)n3n2)cc(OC)c1OC (Tyrosine-protein kinase ABL1 (Homo sapiens), P00519 [E255K]).
Result string: 2.21

Query string: Give measured inhibition for COc1cc2ncn(-c3cc(OCCc4ccccc4)c(C(N)=O)s3)c2cc1OC (Tyrosine-protein kinase ABL1 (Homo sapiens), P00519 [E255K]).
Result string: -1.76
